# protocol: Solvent solubility screen of Compound A (aliquot addition, HPLC of saturated solutions)
# Assay type: physicochemical
# condition_label: dichloromethane:methanol (50:50% v/v), organic solvent or mixture, thermodynamic from solid, Dichloromethane:Methanol (50:50% v/v); read-out: Approximate solubility
property_name: solubility

solubility reading for COc1cc(O[C@H]2C(C)(C)[C@H](NC(=O)c3ccc(N4CCC(CN5CCN(c6ccc(C(=O)N[C@H]7CCC(=O)NC7=O)c(F)c6)CC5)CC4)cc3)C2(C)C)ccc1C#N [Compound A] : ~50 mg/mL

----------
# protocol: Solvent solubility screen of Compound A (aliquot addition, HPLC of saturated solutions)
# Assay type: physicochemical
# condition_label: DCM, organic solvent or mixture, thermodynamic from solid, DCM; read-out: Approximate solubility
property_name: solubility

solubility reading for COc1cc(O[C@H]2C(C)(C)[C@H](NC(=O)c3ccc(N4CCC(CN5CCN(c6ccc(C(=O)N[C@H]7CCC(=O)NC7=O)c(F)c6)CC5)CC4)cc3)C2(C)C)ccc1C#N : ~50 mg/mL

----------
# protocol: Solvent solubility screen of Compound A (aliquot addition, HPLC of saturated solutions)
# Format: physicochemical
# condition_label: Anisole, organic solvent or mixture, thermodynamic from solid, Anisole; read-out: Approximate Solubility
property_name: solubility (mg/mL)
Please respond with the number in mg/mL and leave the unit unwritten.

solubility reading for COc1cc(O[C@H]2C(C)(C)[C@H](NC(=O)c3ccc(N4CCC(CN5CCN(c6ccc(C(=O)N[C@H]7CCC(=O)NC7=O)c(F)c6)CC5)CC4)cc3)C2(C)C)ccc1C#N [Compound A] : 25

----------
# protocol: Solvent solubility screen of Compound A (aliquot addition, HPLC of saturated solutions)
# Assay type: physicochemical
# condition_label: DMA, organic solvent or mixture, thermodynamic from solid, DMA; read-out: solubility
property_name: solubility

solubility reading for COc1cc(O[C@H]2C(C)(C)[C@H](NC(=O)c3ccc(N4CCC(CN5CCN(c6ccc(C(=O)N[C@H]7CCC(=O)NC7=O)c(F)c6)CC5)CC4)cc3)C2(C)C)ccc1C#N : > 100 mg/mL

----------
# protocol: Solvent solubility screen of Compound A (aliquot addition, HPLC of saturated solutions)
# Format: physicochemical
# condition_label: NMP, organic solvent or mixture, thermodynamic from solid, NMP; read-out: solubility
property_name: solubility

solubility reading for COc1cc(O[C@H]2C(C)(C)[C@H](NC(=O)c3ccc(N4CCC(CN5CCN(c6ccc(C(=O)N[C@H]7CCC(=O)NC7=O)c(F)c6)CC5)CC4)cc3)C2(C)C)ccc1C#N : 50 to 100 mg/mL

----------
# protocol: Primary salt screen: XRPD post temperature cycling/evaporation, post drying and post storage at 40° C./75% RH
# Assay type: physicochemical
# condition_label: Compound A + 1.05 eq. counterion (= label); 1,4-Dioxane
property_name: XRPD results post temperature cycling and evaporation

- compound: "Cc1ccc(S(=O)(=O)O)cc1 [p-Toluenesulfonic acid]"
  experimental_result: "A t"
- compound: "O=P(O)(O)O [Phosphoric acid]"
  experimental_result: "A t"
- compound: "O=C(O)C(O)C(O)C(=O)O (stereo not drawn) [l-Tartaric acid]"
  experimental_result: "A t"
- compound: "O=S(=O)(O)c1ccccc1 [Benzenesulfonic acid]"
  experimental_result: "A t"
- compound: "CS(=O)(=O)O [Methanesulfonic acid]"
  experimental_result: "A t"

XRPD results post temperature cycling and evaporation reading for O=C(O)/C=C/C(=O)O [Fumaric acid] : S t *

XRPD results post temperature cycling and evaporation reading for O=C(O)CC(O)(CC(=O)O)C(=O)O [Citric acid] : A t

XRPD results post temperature cycling and evaporation reading for O=C(O)/C=C\C(=O)O [Maleic acid] : S t *

// data source = patent US20240336566A1
